Target: hQ23 (HEK-293 cell line stably transfected with one of the members of the KCNQ family) (Homo sapiens, UniProt O43525+O43526)
Construct: expressed in transfected cells; host or cells: HEK-293, stably transfected
Sequence (O43526 whole entry): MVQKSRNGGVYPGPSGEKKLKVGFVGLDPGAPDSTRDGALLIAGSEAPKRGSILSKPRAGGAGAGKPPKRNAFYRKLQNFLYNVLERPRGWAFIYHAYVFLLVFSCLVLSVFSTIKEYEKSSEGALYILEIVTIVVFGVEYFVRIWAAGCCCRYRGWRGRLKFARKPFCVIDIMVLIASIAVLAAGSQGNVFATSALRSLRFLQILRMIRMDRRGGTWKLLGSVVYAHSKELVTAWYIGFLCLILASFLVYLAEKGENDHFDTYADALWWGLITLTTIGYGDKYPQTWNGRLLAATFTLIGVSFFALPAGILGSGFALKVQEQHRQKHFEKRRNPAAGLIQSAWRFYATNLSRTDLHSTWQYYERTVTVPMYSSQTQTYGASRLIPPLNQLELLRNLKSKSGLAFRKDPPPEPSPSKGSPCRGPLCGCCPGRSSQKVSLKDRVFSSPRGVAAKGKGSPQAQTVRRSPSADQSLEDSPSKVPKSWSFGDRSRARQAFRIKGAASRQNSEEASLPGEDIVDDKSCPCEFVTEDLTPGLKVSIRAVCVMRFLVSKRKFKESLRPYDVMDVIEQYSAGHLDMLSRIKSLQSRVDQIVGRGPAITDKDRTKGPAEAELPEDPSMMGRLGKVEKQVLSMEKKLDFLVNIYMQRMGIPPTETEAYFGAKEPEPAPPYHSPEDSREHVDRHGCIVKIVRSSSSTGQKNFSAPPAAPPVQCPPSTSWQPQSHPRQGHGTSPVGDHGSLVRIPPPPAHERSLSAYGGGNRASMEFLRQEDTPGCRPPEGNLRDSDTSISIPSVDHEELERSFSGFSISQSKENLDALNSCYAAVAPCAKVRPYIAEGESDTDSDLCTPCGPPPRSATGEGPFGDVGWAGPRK
Sequence (O43525 whole entry): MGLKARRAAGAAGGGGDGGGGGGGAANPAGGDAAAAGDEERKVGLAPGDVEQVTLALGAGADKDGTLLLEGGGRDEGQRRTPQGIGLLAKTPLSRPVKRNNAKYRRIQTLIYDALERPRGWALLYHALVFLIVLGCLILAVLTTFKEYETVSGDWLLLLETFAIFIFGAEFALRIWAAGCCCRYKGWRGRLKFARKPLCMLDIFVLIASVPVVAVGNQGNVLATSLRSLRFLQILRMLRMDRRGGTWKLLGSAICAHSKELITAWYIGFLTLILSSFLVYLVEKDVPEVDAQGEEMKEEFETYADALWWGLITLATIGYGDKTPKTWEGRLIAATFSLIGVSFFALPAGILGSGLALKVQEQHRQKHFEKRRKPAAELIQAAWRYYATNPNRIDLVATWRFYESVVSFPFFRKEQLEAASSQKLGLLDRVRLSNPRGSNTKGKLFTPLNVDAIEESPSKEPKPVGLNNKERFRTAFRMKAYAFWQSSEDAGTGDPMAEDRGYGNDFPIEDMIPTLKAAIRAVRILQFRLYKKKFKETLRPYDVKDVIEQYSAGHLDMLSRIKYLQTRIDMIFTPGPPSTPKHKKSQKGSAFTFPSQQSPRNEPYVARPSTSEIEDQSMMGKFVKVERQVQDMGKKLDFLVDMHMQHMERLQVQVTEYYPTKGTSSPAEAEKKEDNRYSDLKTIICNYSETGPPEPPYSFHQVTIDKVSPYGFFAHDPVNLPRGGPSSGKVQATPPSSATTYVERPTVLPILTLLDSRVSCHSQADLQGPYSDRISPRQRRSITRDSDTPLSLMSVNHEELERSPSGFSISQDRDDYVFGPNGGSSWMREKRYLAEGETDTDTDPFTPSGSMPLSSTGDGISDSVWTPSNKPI
Experiment: Thallium flux assay for KCNQ channel blockers (FLIPR, BTC dye)
Type: cell-based
Details: Table 3; thallium flux, HEK-293
MEASURE: EC50 (nM)

>  <MOLECULE>
CN(C)CCNc1ncc(C(=O)N2CCc3ccccc3C2)c(C2(c3ccc(Cl)cc3)CCC2)n1

>  <MEASURE>
EC50

>  <QUANTITATIVE_RESULT>
475

$$$$
>  <MOLECULE>
CCN(CC)C(=O)c1cnc(NCCN(C)C)nc1C1(c2ccc(Cl)cc2)CCC1

>  <MEASURE>
EC50

>  <QUANTITATIVE_RESULT>
558

$$$$
>  <MOLECULE>
CN(C)CCNc1ncc(C(=O)N(C)CCc2ccccc2)c(C2(c3ccc(Cl)cc3)CCC2)n1

>  <MEASURE>
EC50

>  <QUANTITATIVE_RESULT>
321

$$$$

[1] CC1CCN(c2ncc(C(=O)NCc3cc(F)cc(C(F)(F)F)c3)c(C3(c4ccc(Cl)cc4)CCC3)n2)CC1
[2] CCC(C)Nc1ncc(C(=O)NCc2ccc3c(c2)OCO3)c(C2(c3ccc(Cl)cc3)CCC2)n1 (centres unmarked)
[3] CC1CCCN(c2ncc(C(=O)NCc3cccc4ccccc34)c(C3(c4ccc(Cl)cc4)CCC3)n2)C1 (centres unmarked)
[4] CCC(C)Nc1ncc(C(=O)N(CC)CC)c(C2(c3ccc(Cl)cc3)CCC2)n1 (centres unmarked)
[5] CC1CCCN(c2ncc(C(=O)NC(C)c3ccc(F)cc3)c(C3(c4ccc(Cl)cc4)CCC3)n2)C1 (centres unmarked)
Ordering criterion: EC50; begin with the maximum. Enter labels, ranked according to the request.
2, 4, 5, 3, 1

###

Biological target: hQ23 (HEK-293 cell line stably transfected with one of the members of the KCNQ family) (Homo sapiens, UniProt O43525+O43526)
Construct: expressed in transfected cells; host or cells: HEK-293, stably transfected
Assay: Thallium flux assay for KCNQ channel blockers (FLIPR, BTC dye)
Type: cell-based
Conditions: Table 2; thallium flux, HEK-293
MEASURE: EC50 (nM)

Solved entries (count: 2):
>  <COMPOUND>
CN(C)CCNc1ncc(C(=O)N(C)CCc2ccccc2)c(C2(c3ccccc3)CC2)n1 [Example 28]

>  <QUANTITY_UNIT>
nM

>  <EC50>
301

$$$$
>  <COMPOUND>
CC1CCC(Nc2ncc(C(=O)N[C@H](C)c3cccc4ccccc34)c(C3(c4ccccc4)CC3)n2)CC1 (stereo partly shown) [Example 33]

>  <QUANTITY_UNIT>
nM

>  <EC50>
293

$$$$

[1] CC1CCN(c2ncc(C(=O)NCc3ccc(Cl)cc3Cl)c(C3(c4ccccc4)CC3)n2)CC1 [Example 41]
[2] CC1CCCN(c2ncc(C(=O)NCc3cc(F)cc(C(F)(F)F)c3)c(C3(c4ccccc4)CC3)n2)C1 (stereo not shown) [Example 47]
From the recorded data, which exceeds the other in EC50: 1 or 2 ? # respond with the chosen item's label
1
(1: 220 nM, 2: 41 nM)

###

Target: hQ23 (HEK-293 cell line stably transfected with one of the members of the KCNQ family) (Homo sapiens, UniProt O43525+O43526)
Construct: expressed in transfected cells; host or cells: HEK-293, stably transfected
Experiment: Thallium flux assay for KCNQ channel blockers (FLIPR, BTC dye)
Type: cell-based
Conditions: hQ23 cells, thallium flux
Description: Thallium Flux Assay for KCNQ channel blockers. […] For generating IC50 values, compounds were serially diluted in 1:3 volume increments to produce a 10 point concentration series. IC50 values were calculated by fitting the resulting amplitudes to a single-site logistic equation. […]
MEASURE: EC50 (nM)

[A] CC1CCCN(C(=O)c2cnc(NC3CC3)nc2C2(c3ccc(Cl)cc3)CCCC2)C1 (stereo not drawn)
[B] O=C(NCc1cc(F)cc(C(F)(F)F)c1)c1cnc(NC2CCCC2)nc1C1(c2ccc(Cl)cc2)CCCC1
// select label with min value of measured EC50 from [ A , B ] # respond with the chosen item's label
B
(B: 91 nM, A: 884 nM)

[I] CC1CCN(c2ncc(C(=O)NCc3ccc(C(F)(F)F)cc3)c(C3(c4ccccc4)CCCC3)n2)CC1
[II] CC1CCN(c2ncc(C(=O)N(C)CCc3ccccc3)c(C3(c4ccc(F)cc4)CCCC3)n2)CC1
From the recorded data, which exceeds the other in EC50: I or II ? # respond with the chosen item's label
II
(II: 273 nM, I: 10 nM)

[1] CC1CCC(Nc2ncc(C(=O)N(C)CCc3ccccc3)c(C3(c4ccc(Cl)cc4)CCCC3)n2)CC1 (stereo not drawn)
[2] CCN(Cc1ccccc1)C(=O)c1cnc(N2CCC(C)CC2)nc1C1(c2ccc(F)cc2)CCCC1
[3] CC1CCN(c2ncc(C(=O)NCc3ccc(Cl)c(Cl)c3)c(C3(c4ccc(Cl)cc4)CCCC3)n2)CC1
Ordering criterion: EC50; begin with the maximum. Enter labels, ranked according to the request.
1, 2, 3

[a] CC1CCCN(c2ncc(C(=O)NCc3ccc(F)cc3F)c(C3(c4ccc(Cl)cc4)CCCC3)n2)C1 (stereo not drawn)
[b] CCN(C(=O)c1cnc(N2CCC(C)CC2)nc1C1(c2ccccc2)CCCC1)C1CCCCC1
[c] CC1CCN(c2ncc(C(=O)NCc3cccc4ccccc34)c(C3(c4ccccc4)CCCC3)n2)CC1
[d] CC1CCC(Nc2ncc(C(=O)NCc3cccc4ccccc34)c(C3(c4ccc(Cl)cc4)CCCC3)n2)CC1 (stereo not drawn)
Arrange the 4 compounds by rising EC50, starting with the smallest. Enter labels, ranked according to the request.
c, d, a, b

[P] CC1CCN(c2ncc(C(=O)NC(C)c3ccc(F)cc3)c(C3(c4ccccc4)CCCC3)n2)CC1 (stereo not drawn)
[Q] CN1CCN(c2ncc(C(=O)NCc3cc(F)cc(C(F)(F)F)c3)c(C3(c4ccccc4)CCCC3)n2)CC1
From the recorded data, which exceeds the other in EC50: P or Q ? # respond with the chosen item's label
Q
(Q: 375 nM, P: 98 nM)

[a] CN1CCN(c2ncc(C(=O)NCc3cccc4ccccc34)c(C3(c4ccc(Cl)cc4)CCCC3)n2)CC1
[b] CC1CCCN(c2ncc(C(=O)N(C)CCc3ccccc3)c(C3(c4ccccc4)CCCC3)n2)C1 (stereo not drawn)
From the recorded data, which exceeds the other in EC50: a or b ? # respond with the chosen item's label
b

[P] CC(NC(=O)c1cnc(NC2CCCC2)nc1C1(c2ccc(Cl)cc2)CCCC1)c1cccc2ccccc12 (stereo not drawn)
[Q] CC(NC(=O)c1cnc(N2CCCC2)nc1C1(c2ccccc2)CCCC1)c1ccc(F)cc1 (stereo not drawn)
// select label with min value of measured EC50 from [ P , Q ] # respond with the chosen item's label
P

[a] CC1CCCN(c2ncc(C(=O)N(C)CCc3ccccc3)c(C3(c4ccc(F)cc4)CCCC3)n2)C1 (stereo not drawn)
[b] CCC(C)Nc1ncc(C(=O)NCc2cc(F)cc(C(F)(F)F)c2)c(C2(c3ccccc3)CCCC2)n1 (stereo not drawn)
[c] CC1CCCN(c2ncc(C(=O)NC(C)c3cccc4ccccc34)c(C3(c4ccccc4)CCCC3)n2)C1 (stereo not drawn)
Ordering criterion: EC50; begin with the maximum. Enter labels, ranked according to the request.
a, c, b
(a: 356 nM, c: 19 nM, b: 10 nM)

###

Target: hQ23 (HEK-293 cell line stably transfected with one of the members of the KCNQ family) (Homo sapiens, UniProt O43525+O43526)
Construct: expressed in transfected cells; host or cells: HEK-293, stably transfected
Assay: Thallium flux assay for KCNQ channel blockers (FLIPR, BTC dye)
Assay type: cell-based
Conditions: Table 2; thallium flux, HEK-293
MEASURE: EC50 (nM)

>  <MOLECULE>
CC1CCC(Nc2ncc(C(=O)NCc3ccc(Cl)cc3Cl)c(C3(c4ccccc4)CC3)n2)CC1 (stereo not shown)

>  <QUANTITATIVE_RESULT>
551

$$$$

[I] CC1CCN(c2ncc(C(=O)NCc3ccc(F)cc3F)c(C3(c4ccccc4)CC3)n2)CC1
[II] CCN(Cc1ccccc1)C(=O)c1cnc(N2CCCC(C)C2)nc1C1(c2ccccc2)CC1 (stereo not shown)
[III] O=C(NCc1cc(F)cc(C(F)(F)F)c1)c1cnc(N2CCCC2)nc1C1(c2ccccc2)CC1
Arrange the 3 molecules by rising EC50, starting with the smallest. Enter labels, ranked according to the request.
III, II, I
(III: 209 nM, II: 634 nM, I: 919 nM)

###

Target: hQ23 (HEK-293 cell line stably transfected with one of the members of the KCNQ family) (Homo sapiens, UniProt O43525+O43526)
Construct: expressed in transfected cells; host or cells: HEK-293, stably transfected
Test: Thallium flux assay for KCNQ channel blockers (FLIPR, BTC dye)
Type: cell-based
Conditions: hQ23 cells, thallium flux
pEC50: −log10 of the molar value.
MEASURE: pEC50

>  <MOLECULE>
CC1CCCN(c2ncc(C(=O)NC(C)c3ccc(F)cc3)c(C3(c4ccc(Cl)cc4)CCCC3)n2)C1 (stereo not shown) [Example 198]

>  <pEC50>
6.91

$$$$

[A] CCN(Cc1ccccc1)C(=O)c1cnc(N2CCCC(C)C2)nc1C1(c2ccccc2)CCCC1 (stereo not shown) [Example 85]
[B] CCC(C)Nc1ncc(C(=O)NCc2ccc(Cl)cc2Cl)c(C2(c3ccccc3)CCCC2)n1 (stereo not shown) [Example 114]
[C] CC1CCC(Nc2ncc(C(=O)NC(C)c3cccc4ccccc34)c(C3(c4ccccc4)CCCC3)n2)CC1 (stereo not shown) [Example 95]
Arrange the 3 molecules by rising pEC50, starting with the smallest. Enter labels, ranked according to the request.
A, B, C
(A: 6.79, B: 6.99, C: 7.19)
